# TGT: T1, 4H_BCR
# T1 chain: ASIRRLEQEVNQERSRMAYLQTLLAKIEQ
# PROTOCOL DETAILS: two-hybrid library CCmax;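 note: natural log of median RNA to DNA barcode read ratio; higher means stronger binding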
# CONDITIONS USED: mean of both orientations
Please note: interaction score exactly at -2 is F. Only values below -2 get T.

{"BINDER": "DEIAALKAKIAALKAKNAALKAKNAALEG [4H895-AA]", "LABEL CLASS": "T"}
{"BINDER": "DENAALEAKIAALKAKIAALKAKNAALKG [4H1392-AA]", "LABEL CLASS": "T"}
{"BINDER": "DEIAALEAKIAALKAKNAALKAKNAALKG [4H384-AA]", "LABEL CLASS": "T"}
{"BINDER": "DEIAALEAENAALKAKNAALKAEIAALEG [4H249-AA]", "LABEL CLASS": "F"}
{"BINDER": "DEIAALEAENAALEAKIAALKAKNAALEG [4H175-AA]", "LABEL CLASS": "T"}
{"BINDER": "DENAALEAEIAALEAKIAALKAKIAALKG [4H1070-AA]", "LABEL CLASS": "F"}
{"BINDER": "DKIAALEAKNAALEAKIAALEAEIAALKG [4H2466-AA]", "LABEL CLASS": "T"}
{"BINDER": "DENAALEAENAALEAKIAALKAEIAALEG [4H1193-AA]", "LABEL CLASS": "F"}
{"BINDER": "DKIAALKAKNAALKAEIAALEAKNAALEG [4H3015-AA]", "LABEL CLASS": "F"}
{"BINDER": "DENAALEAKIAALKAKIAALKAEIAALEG [4H1385-AA]", "LABEL CLASS": "F"}
{"BINDER": "DEIAALEAKNAALKAEIAALEAENAALKG [4H452-AA]", "LABEL CLASS": "F"}
{"BINDER": "DKNAALEAKIAALKAKIAALKAKIAALKG [4H3438-AA]", "LABEL CLASS": "F"}
{"BINDER": "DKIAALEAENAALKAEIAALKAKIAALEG [4H2253-AA]", "LABEL CLASS": "F"}
{"BINDER": "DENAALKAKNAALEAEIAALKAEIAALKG [4H1930-AA]", "LABEL CLASS": "F"}
{"BINDER": "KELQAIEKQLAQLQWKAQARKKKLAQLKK [4H_APH]", "LABEL CLASS": "F"}
{"BINDER": "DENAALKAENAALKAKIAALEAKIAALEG [4H1765-AA]", "LABEL CLASS": "F"}
{"BINDER": "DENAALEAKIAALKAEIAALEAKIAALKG [4H1350-AA]", "LABEL CLASS": "F"}
{"BINDER": "DENAALKAKIAALEAEIAALKAEIAALKG [4H1802-AA]", "LABEL CLASS": "F"}
{"BINDER": "DKIAALKAKIAALKAENAALEAEIAALKG [4H2898-AA]", "LABEL CLASS": "F"}
{"BINDER": "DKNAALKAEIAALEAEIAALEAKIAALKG [4H3590-AA]", "LABEL CLASS": "F"}
{"BINDER": "DKIAALKAEIAALEAENAALKAKNAALKG [4H2592-AA]", "LABEL CLASS": "F"}
{"BINDER": "DENAALEAEIAALKAKIAALKAKNAALKG [4H1136-AA]", "LABEL CLASS": "F"}
